# Tested on: aspergillus flavous
# procedure-text: microbe, parasite or virus in culture
# Type: cell-based

substance	Minimal inhibitory concentration
Ac-FKKFKKLLSKLWNWK-NH2 (N-terminus and C-terminus assumed) [PL-32]	>64 µg/mL
Ac-KKLKKLFSKLWNW-NH2 (N-terminus and C-terminus assumed) [PL-30]	>64 µg/mL
Ac-FKKLKKLFSKLWNWKK-NH2 (N-terminus and C-terminus assumed) [PL-48]	>64 µg/mL
Ac-FKKLKKLFSKLLNLK-NH2 [PL-26]	>64 µg/mL
Ac-FKKLKKKFSKLWNWK-NH2 (N-terminus and C-terminus assumed) [PL-23]	>64 µg/mL
Ac-FKKLKKLFSKLWNWK-NH2 [PL-13]	>64 µg/mL
